Cited source for all entries: PubChem BioAssay

assay: TLR3 IRF3 reporter activation blockers – cell-based, poly I:C stimulus, luciferase, 10K MLSCN set, primary screen (AID 602277); conditions: HEK293-TLR3 RL24 IRF3 luciferase reporter, at 10 µM, stronger effect = higher value
Active and inactive are the calls of the source.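 How the source made its calls: active means inhibition of the reporter signal at or above 50%; inactive means inhibition below 50%.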
Here the recorded inhibition is given for each entry.

[
  {
    "molecule": "NC(=O)CSP(=O)(c1ccccc1)c1ccccc1",
    "inhibition": "18.3% (inactive)"
  }
]

In: Could you please provide reported inhibition for "CC1=C(C(=O)OC(C)C)[C@]2(C(=O)N(CC(N)=O)c3ccccc32)C(C#N)=C(N)O1" ? Thanks!
Out: 21.9% (inactive)

In: Give the measured inhibition for "O=C(Cn1c2c(c(-c3ccccc3Cl)cc1=O)CCC2)N1CCC2(CC1)OCCO2"
Out: -12.2% (inactive)

In: Query inhibition for "CCCCn1c(O)c(C(CC)=Nc2cccc(C(=O)O)c2)c(=O)[nH]c1=O"
Out: 9.91% (inactive)

In: Give a short answer stating reported inhibition for "O=C(NCc1ccccn1)c1ccccc1Cl" .
Out: 10.8% (inactive)

In: Name the recorded inhibition of the molecule listed here: CC(C)OC(=O)c1c(N)n(CC2CCCO2)c2nc3ccccc3nc12 (stereo unspecified)
Out: 13.4% (inactive)

====

Overview of recorded nuclei count for various molecules
assay: endothelial E-selectin expression blockers – imaging, HUVEC, immunofluorescence, MLSMR starter and 10KST1 sets, primary screen (AID 487); conditions: HUVEC TNFalpha-induced E-selectin immunofluorescence imaging, at 2 µM; measured here: cell number, toxicity;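 on nuclei count: 100% = median nuclei count of all wells on the same plate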
The answer is to be given in %; state only the numeric part.

// known answers, use as guide
[
  {
    "molecule": "CC(C)(C)C(O)C(Oc1ccc(Cl)cc1)n1cncn1 (configuration not stated)",
    "nuclei count [%]": 131
  },
  {
    "molecule": "O=C(Cn1ncc2c3ccccc3n(Cc3ccc(F)cc3)c2c1=O)N1CCC2(CC1)OCCO2",
    "nuclei count [%]": 130
  },
  {
    "molecule": "Cc1ccc(CS(=O)(=O)CCC(=O)N2CCC3(CC2)OCCO3)cc1",
    "nuclei count [%]": 109
  },
  {
    "molecule": "O=c1[nH]c(=O)n(Cc2ccco2)c(O)c1C=NCc1ccc2c(c1)OCO2",
    "nuclei count [%]": 148
  },
  {
    "molecule": "CC1CCN2c3nc4ccccn4c(=O)c3CC3(C(=O)N(C)C(=O)N(C)C3=O)C2C1 (configuration not stated)",
    "nuclei count [%]": 95.1
  },
  {
    "molecule": "c1ccc(C2CC3CC(c4ccco4)N2O3)cc1 (configuration not stated)",
    "nuclei count [%]": 118
  },
  {
    "molecule": "CN1C(=O)N(C)C(=O)C2(Cc3ccccc3N3CCOCC32)C1=O (configuration not stated)",
    "nuclei count [%]": 148
  },
  {
    "molecule": "O=c1c2ccccc2[se]n1-c1ccccc1",
    "nuclei count [%]": 117
  }
]

In: Tell me its nuclei count given Cc1ccc(C(=O)C2CN3CCC2CC3)cc1 (configuration not stated) as the entry.
Out: 111

====

test: endothelial E-selectin expression blockers – imaging, HUVEC, immunofluorescence, MLSMR starter and 10KST1 sets, primary screen (AID 487); conditions: HUVEC TNFalpha-induced E-selectin immunofluorescence imaging, at 2 µM; stronger effect = higher value;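 on inhibition: signal is fraction of cell area covered by stained E-selectin grains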
Label rule, in plain words: inhibition of -70% and up is true, under -70% is false.

In: Identify whether the reported inhibition of the following molecule is -70% or greater: "Cn1c(O)c(C(=O)c2ccccc2Cl)c(=O)n(C)c1=O"
Out: true

====

biological target: Alpha-2C adrenergic receptor (Homo sapiens) (UniProt P18825); assay: compounds altering alpha2C-coupled GIRK flux – cell-based, HEK293 alpha2C/GIRK1/2, thallium flux, primary screen (AID 624); conditions: thallium flux BTC fluorescence, at 10 µM, actives lie on both sides;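 further: slope of fluorescence ratio to pre-addition baseline per second over 15 to 24 s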
Sequence (P18825 whole entry, looked up): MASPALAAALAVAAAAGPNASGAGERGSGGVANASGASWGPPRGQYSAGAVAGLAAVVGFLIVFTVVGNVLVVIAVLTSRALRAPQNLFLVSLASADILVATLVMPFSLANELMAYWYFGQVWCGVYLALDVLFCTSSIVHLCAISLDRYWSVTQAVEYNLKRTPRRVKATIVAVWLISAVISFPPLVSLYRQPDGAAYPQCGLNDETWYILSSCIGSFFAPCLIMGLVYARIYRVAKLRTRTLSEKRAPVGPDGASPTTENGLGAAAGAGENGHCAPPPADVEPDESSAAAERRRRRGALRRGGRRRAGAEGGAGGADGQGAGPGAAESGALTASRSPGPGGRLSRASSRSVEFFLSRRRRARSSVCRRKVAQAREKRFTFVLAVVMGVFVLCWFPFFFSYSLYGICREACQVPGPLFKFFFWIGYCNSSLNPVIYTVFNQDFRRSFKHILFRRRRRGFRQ
parameter.measured: slope
Field format: numeric only.

[
  {
    "compound": "Cc1cccc(C2=NCC(=O)N(CC(=O)NCc3ccco3)c3sc4c(c32)CCCC4)c1",
    "target.under.test": "Alpha-2C adrenergic receptor (Homo sapiens) (UniProt P18825)",
    "parameter.measured": "slope",
    "val": 0.00582
  },
  {
    "compound": "O=c1[nH]c(=O)n(Cc2ccco2)c(O)c1C=NCCN1CCOCC1",
    "target.under.test": "Alpha-2C adrenergic receptor (Homo sapiens) (UniProt P18825)",
    "parameter.measured": "slope",
    "val": 0.00707
  }
]

In: Complete the entry with slope for C#CCN(C)C(C)Cc1ccccc1 (stereo not drawn)
Out: 0.00486

In: Supply measured slope of "C[C@H]1CCCC(=O)CCC/C=C/c2cc(O)cc(O)c2C(=O)O1" in your reply.
Out: 0.00303

In: Report slope, nothing else, for this compound: CC1(C)Cc2c(sc3c2C(=O)NC(c2cccnc2)N3)CO1 (stereo not drawn)
Out: 0.00356

In: Quote slope reported for "O=c1[nH]c(=O)n(Cc2ccc(F)cc2)c(O)c1C=NCCCN1CCOCC1" please.
Out: 0.00502

====

experiment: inhibitors of TNFa-induced NFkB p65 translocation, primary screen, imaging, HUVEC, MLSMR starter and 10KST1 sets (AID 438); settings: HUVEC TNFa-induced p65 nuclear translocation; at 2 µM, stronger effect = higher value unless noted;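 further: compound added about 3h40 before a 20 min TNFalpha stimulation; signal is the nuclear over cytoplasmic p65 intensity ratio per well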
Calls of active or inactive are those of the source.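 The calls were made as follows: active = inhibition above 20% together with a positive visual image hit; inconclusive = visual image hit but inhibition not above 20%; inactive = no visual image hit.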
parameter.measured: inhibition

# example entries with known answers
[
  {
    "compound": "Nc1c(C(=O)NCc2ccco2)c2nc3ccccc3nc2n1CCN1CCCCC1",
    "inhibition": "18.1% (inactive)"
  },
  {
    "compound": "CC1(C)CC(=O)C=C(NCCN2CCN(C(=O)Cc3ccc(Cl)cc3)CC2)C1",
    "inhibition": "-4.2% (inactive)"
  },
  {
    "compound": "COc1ccc(N2CCN(CCCN)CC2)cc1",
    "inhibition": "2.8% (inactive)"
  },
  {
    "compound": "C=CCn1c(O)c(C(C)=Nc2ccc(N(CC)CC)cc2)c(=O)[nH]c1=O",
    "inhibition": "2.5% (inactive)"
  },
  {
    "compound": "COc1ccc(OC)c(C(O)C(C)N)c1 (configuration not stated)",
    "inhibition": "-7.1% (inactive)"
  }
]

In: Item "CCCC(=O)OCC[N+](C)(C)C" : provide inhibition
Out: -8.2% (inactive)

====

molecular target: Alpha-2C adrenergic receptor (Homo sapiens); assay: compounds altering alpha2C-coupled GIRK flux – cell-based, HEK293 alpha2C/GIRK1/2, thallium flux, primary screen (AID 624); conditions: thallium flux BTC fluorescence, at 10 µM, actives lie on both sides;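 further: slope of fluorescence ratio to pre-addition baseline per second over 15 to 24 s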
Simple rule here: slope less than 0.005 is 1 (yes), otherwise 0 (no).

In: Would you kindly verify if slope of CCC(COC(=O)c1cc(OC)c(OC)c(OC)c1)(c1ccccc1)N(C)C (configuration not stated) is strictly less than 0.005?
Out: 1 (yes)

In: Lab log: compare recorded slope with 0.005; is it strictly lower for "CCCCCCOc1ccc(CN2CCN(C)CC2)cc1" ?
Out: 0 (no)

In: Does the reported slope of the following molecule sit strictly below 0.005? "CN1CCC(OC(=O)C2c3ccccc3Oc3ccccc32)CC1"
Out: 1 (yes)

In: slope under 0.005? Item: "O=c1[nH]c(=O)n(-c2cccc3ccccc23)c(O)c1C=NCCCn1ccnc1"
Out: 1 (yes)

In: hey, is slope for CCN(CC)CCCC(C)N=C(c1ccccc1)c1c(O)n(C)c(=O)n(C)c1=O (configuration not stated) lower than 0.005 or not?
Out: 1 (yes)

In: Is the reported slope for "N#Cc1ccccc1Cn1cc(C(=O)C2CC2)c2ccccc21" strictly below 0.005?
Out: 1 (yes)

In: Field: below-cutoff. Rule: recorded slope strictly less than 0.005. Subject: "CCNc1ccc(P(=S)(N(C)C)N(C)C)cc1"
Out: 0 (no)

In: Does the reported slope of "O=C(c1ccc2nc(-c3ccco3)c(-c3ccco3)nc2c1)N1CCC2(CC1)OCCO2" stay below 0.005?
Out: 1 (yes)

In: Identify whether the molecule CCCCOCCCn1c(N)c(C(=O)OC(C)COC)c2nc3ccccc3nc21 (configuration not stated) records slope below 0.005.
Out: 0 (no)

In: Please state whether slope is below 0.005 for "CC(=O)Nc1ccc(OC(=O)c2ccccc2N)cc1"
Out: 1 (yes)

In: Determine whether this molecule shows slope lower than 0.005 (ties excluded): CC[N+]1(C)CCCC(OC(=O)C(O)(c2ccccc2)c2ccccc2)C1 (configuration not stated)
Out: 1 (yes)

In: Is slope of Cc1ccc(C2SCC(=O)Nc3c2c(=O)[nH]n3C2CCOC(C)(C)C2)cc1 (configuration not stated) strictly below 0.005?
Out: 1 (yes)

In: Bench note: check whether Cc1ccc(C(=O)C2CN3CCC2CC3)cc1 (configuration not stated) shows slope below 0.005
Out: 1 (yes)

In: Find out if reported slope for "O=c1[nH]c(=O)n(Cc2ccco2)c(O)c1C=NCc1ccc2c(c1)OCO2" is less than 0.005
Out: 0 (no)

In: Take the molecule CN1[C@@H]2CC[C@H]1CC(OC(=O)C1C=Nc3ccccc31)C2 (some centres not stated) and say whether its slope is less than 0.005.
Out: 0 (no)

In: Identify whether the molecule C=CCN1C(=O)C2(C(C(=O)OCC)=C(N)Oc3c2c(=O)oc2ccccc32)c2ccccc21 (configuration not stated) records slope below 0.005.
Out: 0 (no)

In: In the record for "CC[C@@H](CO)NC(=O)[C@@H]1C=C2c3cccc4c3c(cn4C)C[C@H]2N(C)C1" , is slope less than 0.005?
Out: 1 (yes)

In: Find out if reported slope for CC(NC(C)(C)C)C(=O)c1cccc(Cl)c1 (configuration not stated) is less than 0.005
Out: 1 (yes)

In: hey, is slope for "CCC(=NCCOc1ccc(Cl)cc1)c1c(O)n(C)c(=O)n(C)c1=O" lower than 0.005 or not?
Out: 1 (yes)
